tgt: AKT3 (Homo sapiens, UniProt Q9Y243)
Sequence (Q9Y243 whole entry): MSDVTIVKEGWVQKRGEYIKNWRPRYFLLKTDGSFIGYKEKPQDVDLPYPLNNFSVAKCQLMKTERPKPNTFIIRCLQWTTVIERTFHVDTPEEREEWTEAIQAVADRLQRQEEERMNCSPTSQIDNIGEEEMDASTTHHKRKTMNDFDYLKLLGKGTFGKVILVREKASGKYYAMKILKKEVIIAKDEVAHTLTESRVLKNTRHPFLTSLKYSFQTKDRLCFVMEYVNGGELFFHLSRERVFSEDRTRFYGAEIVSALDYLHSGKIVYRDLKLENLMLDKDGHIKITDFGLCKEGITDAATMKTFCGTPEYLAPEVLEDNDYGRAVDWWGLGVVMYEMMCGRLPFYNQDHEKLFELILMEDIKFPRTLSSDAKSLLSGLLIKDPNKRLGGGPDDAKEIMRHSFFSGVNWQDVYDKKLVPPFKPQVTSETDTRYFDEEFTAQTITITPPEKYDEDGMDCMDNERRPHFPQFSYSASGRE
assay_name: AKT Kinase Assay (IMAP fluorescent polarisation) vs AKT3
test_settings: activated AKT3, FAM Crosstide substrate
Structures can show the parent of a compound that is named as a salt.
In this section we review reported IC50 values for a set of molecules.

{"molecule": "NC1(c2ccc(-c3c(-c4ccccc4)oc4cccnc34)cc2)CCC1", "tgt": "AKT3 (Homo sapiens, UniProt Q9Y243)", "IC50": "> 10 µM"}
{"molecule": "NC1(c2ccc(-c3oc4cnccc4c3-c3ccccc3)cc2)CCC1", "tgt": "AKT3 (Homo sapiens, UniProt Q9Y243)", "IC50": "> 10 µM"}
{"molecule": "CC(C)n1cnc2oc(-c3ccc(C4(N)CCC4)cc3)c(-c3ccccc3)c2c1=O [Example 107, HCl]", "tgt": "AKT3 (Homo sapiens, UniProt Q9Y243)", "IC50": "1 to 10 µM"}
{"molecule": "NC1(c2ccc(-c3oc4nc(NCCO)n(CC(F)(F)F)c(=O)c4c3-c3ccccc3)cc2)CCC1", "tgt": "AKT3 (Homo sapiens, UniProt Q9Y243)", "IC50": "1 to 10 µM"}
